Catalogue of strep/HRP readings, one per entry.
Biological target: T1, human CD70, recombinant, N-terminally biotinylated (residues 39-193) (human, UniProt P32970 39-193, N-terminal biotin)
T1 construct: range 39-193; the same entry is used there; also called biotinylated human CD70; CD70 biotin
T1 sequence (looked up): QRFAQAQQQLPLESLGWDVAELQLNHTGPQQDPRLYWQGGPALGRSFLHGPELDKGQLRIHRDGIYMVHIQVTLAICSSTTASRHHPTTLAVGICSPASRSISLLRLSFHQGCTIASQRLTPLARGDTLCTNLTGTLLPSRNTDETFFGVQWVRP
Experiment: CD27 blocking ELISA, 3 µM scFv, strep/HRP
endpoint name: strep/HRP

| binder | measurement |
| --- | --- |
| 49-TC4-XVI-F01 (scFv, His-tagged) scFv: QVQLVESGGGVVQPGRSLRLSCAASGFTFSSYAMHWVRQAPGKGLEWVAVISYDGSNKYYADSVKGRFTISRDNSKNTLYLQMNSLRAEDTAVYYCARDSTQDYGMDVWGQGTMVTVSSGGSGGSGGSGGSSSELTQDPAVSVALGQTVRITCQGDSLRNYYASWYQQKPGQAPVLVFYGKNNRPSGIPDRFSGSSSGNTASLTITGAQAEDEADYYCNSRDSSGNHLVVFGGGTKLTVL | 1.29 |
| 55-TC4-IX-G04 (scFv, His-tagged) scFv: QVQLLESGGGVVQPGRSLRLSCAASGFTFSSYAMHWVRQAPGKGLEWVAVISYDGSNKYYADSVKGRFTISRDNSKNTLYLQMNSLRAEDTAVYYCARGLGFGSGWYEYVDAFDIWGQGTMVTVSSGGSGGSGGSGGSQSVLTQPASVSGSPGQSITISCTGTSSDVGSYNLVSWYQQHPGKAPKLMIYEVSKRPSGVSNRFSGSKSGNTASLTISGLQAEDEADYYCSSYRSNNTPWVFGGGTKLTVL | 1.28 |
| 62-TC7-V-D08 (scFv, His-tagged) scFv: QVQLQQWGAGLLKPSETLSLTCAVYGGSFSGYYWSWIRQPPGKGLEWIGEINHSGSTNYNPSLKSRVTISVDTSKNQFSLKLSSVTAADTAVYYCARVARGKGAFDIWGQGTMVTVSSGGSGGSGGSGGSQSALTQPASVSGSPGQSITISCTGTSSDVGGYNYVSWYQQHPGKAPKLLIYEVSSRPSGVSNRFSGSKSGNTASLTISGLQAEDEADYYCNSYTNSGSWVFGGGTKVTVL | 1.54 |
| 16-TC4-I-C11 (scFv, His-tagged) scFv: QVQLVQSGAEVKKPGSSVKVSCKASGGTFSSYAISWVRQAPGQGLEWMGWISAYNGNTNYAQKLQGRVTMTTDTSTSTAYMELRSLRSDDTAVYYCARVTPPGWLGNMDVWGKGTTVTVSSGGSGGSGGSGGSSYELMQSPSVSVAPGQTARITCGGRDIGSKSVHWYQQKPGQAPVLVVYDDSDRPSGIPERLSGSNFGNEATLTISRVEAGDEGDYFCQVWDSSTDVVFGGGTKVTVL | 1.43 |
| 42-TC4-VII-G08 (scFv, His-tagged) scFv: QVQLVQSGGGVVQPGRSLRLSCAASGFTFSSYAMHWVRQAPGKGLEWVAVISYDGSNKYYADSVKGRFTISRDNSKNTLYLQMNSLRAEDTAVYYCARDLSYDYGFDYWGQGTLVTVSSGGSGGSGGSGGSSSELTQDPAVSVALGQTVRITCQGDSLRSYYASWYQQKPGQAPVLVIYGKNNRPSGIPDRFSGSSSGNTASLTITGAQAEDEADYYCNSRDSSGNHLVVFGGGTKVTVL | 1.11 |
